Where these numbers come from: paper PMC7719162

Target: PDK4/PDHK4 (Homo sapiens, UniProt Q16654)
Construct: purchased Reaction Biology Corp
Sequence (Q16654 whole entry): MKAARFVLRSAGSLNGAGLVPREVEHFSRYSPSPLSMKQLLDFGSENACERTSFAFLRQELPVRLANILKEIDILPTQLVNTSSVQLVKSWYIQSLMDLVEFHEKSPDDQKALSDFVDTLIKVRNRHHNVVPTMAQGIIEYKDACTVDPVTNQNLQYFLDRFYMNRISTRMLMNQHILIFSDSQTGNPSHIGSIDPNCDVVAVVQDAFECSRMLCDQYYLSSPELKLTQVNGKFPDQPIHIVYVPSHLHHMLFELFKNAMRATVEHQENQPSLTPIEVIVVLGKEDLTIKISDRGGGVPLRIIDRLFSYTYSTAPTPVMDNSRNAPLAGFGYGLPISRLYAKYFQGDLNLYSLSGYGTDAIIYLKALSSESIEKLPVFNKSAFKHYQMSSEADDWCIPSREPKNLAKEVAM
Assay: Kinase panel assay (radiolabelled)
Format: biochemical
Conditions: control GW5074
ASSAY ENDPOINT: IC50 (nM)
Answers are plain numbers, in nM.

API: value(readout=IC50, system=PDK4/PDHK4 (Homo sapiens, UniProt Q16654)) for record O=C1Nc2ccc(I)cc2/C1=C/c1cc(Br)c(O)c(Br)c1 [GW5074, reference compound] 2120

* * *

Biological target: PIP5K1C (Homo sapiens)
Construct: purchased Reaction Biology Corp
Sequence (O60331 whole entry): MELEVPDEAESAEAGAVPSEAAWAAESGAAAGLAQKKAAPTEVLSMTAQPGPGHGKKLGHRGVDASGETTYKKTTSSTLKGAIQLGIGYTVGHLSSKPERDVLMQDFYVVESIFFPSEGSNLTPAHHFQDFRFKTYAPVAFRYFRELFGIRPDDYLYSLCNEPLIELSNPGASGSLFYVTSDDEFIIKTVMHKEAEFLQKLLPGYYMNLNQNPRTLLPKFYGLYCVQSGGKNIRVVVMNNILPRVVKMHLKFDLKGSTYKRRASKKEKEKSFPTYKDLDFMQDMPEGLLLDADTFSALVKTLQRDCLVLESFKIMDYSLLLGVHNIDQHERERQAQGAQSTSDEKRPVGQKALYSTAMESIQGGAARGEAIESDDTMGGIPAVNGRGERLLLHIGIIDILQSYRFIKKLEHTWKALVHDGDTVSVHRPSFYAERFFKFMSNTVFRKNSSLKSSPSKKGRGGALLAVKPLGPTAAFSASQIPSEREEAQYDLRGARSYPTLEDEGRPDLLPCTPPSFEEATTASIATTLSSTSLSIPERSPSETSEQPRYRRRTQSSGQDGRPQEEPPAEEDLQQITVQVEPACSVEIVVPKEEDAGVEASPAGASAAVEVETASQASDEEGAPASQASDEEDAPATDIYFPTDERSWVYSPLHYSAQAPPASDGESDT
Experiment: Kinase panel assay (lipid kinase)
Format: biochemical
Conditions: control PIK-93
ASSAY ENDPOINT: IC50 (µM)
One number for each entry, in µM.

Which IC50 value belongs to CC(=O)Nc1nc(C)c(-c2ccc(Cl)c(S(=O)(=O)NCCO)c2)s1 [PIK-93, reference compound] ? 17.5
